# System: TUR
# Experimental Protocol: EC50 in cancer cell line, rilpivirine alone
# Assay type: cell-based
# Condition Notes: Histiocytic lymphoma
Measurement Name: pEC50
Entry type: numeric. Quantity: pEC50, the -log10 of concentration in molar units.

INPUT: State the recorded pEC50 for this entry: Cc1cc(/C=C/C#N)cc(C)c1Nc1ccnc(Nc2ccc(C#N)cc2)n1 [rilpivirine]
OUTPUT: 5.68
